Literature pIC50 values, system: Receptor-type tyrosine-protein kinase FLT3 (Homo sapiens).
pIC50: −log10 of the molar value.

Observe how each entry below is paired with its result.
{"columns": ["COMPOUND", "ENDPOINT_VALUE"],
 "data": [
  ["COC[C@H](C)Nc1ncc2c(-c3cn(C)nc3C)cc([C@H]3CC[C@H](O)CC3)n2n1", "6.00 to 7.00"],
  ["COC[C@H](C)Nc1ncc2c(-c3cnn(C4CN(C(C)=O)C4)c3)cc([C@H]3CC[C@H](O)CC3)n2n1", "≥ 7.00"],
  ["COC[C@H](C)Nc1ncc2c(-c3ccc(C4(C(=O)N5CCOCC5)CC4)cc3)cc([C@H]3CC[C@H](O)CC3)n2n1", "≥ 7.00"]
]}

Field pIC50 (Receptor-type tyrosine-protein kinase FLT3 (Homo sapiens)), entry Cc1csc2[nH]c(=O)c(-c3nc4ccc(N5CCN(C)CC5)cc4[nH]3)c(N)c12 : ≥ 7.30

Item CCCC(C)Nc1ncc2c(=O)n(C3CCNCC3)cc([C@H]3CC[C@H](O)CC3)c2n1 (stereo partly shown) ; assay system Receptor-type tyrosine-protein kinase FLT3 (Homo sapiens); pIC50 reported as 5.00 to 6.00

Short answer on Receptor-type tyrosine-protein kinase FLT3 (Homo sapiens) for C[C@@H](CC(F)(F)F)Nc1ncc2c(O[C@H]3C[C@@H](CN4CCOCC4)C3)ncc([C@H]3CC[C@H](O)CC3)c2n1 , pIC50: 6.00 to 7.00

So the reported pIC50 for CN(C)CCNc1nc2ccccc2c2c(=O)c3cc(F)ccc3sc12 , on Receptor-type tyrosine-protein kinase FLT3 (Homo sapiens), turned out to be 6.30 to 6.70

With Receptor-type tyrosine-protein kinase FLT3 (Homo sapiens) as the test system, CCCC(C)Nc1ncc2c(OC3CCC(F)(F)CC3)ncc([C@H]3CC[C@H](O)CC3)c2n1 (stereo partly shown) showed pIC50 of 5.00 to 6.00

Known value: Receptor-type tyrosine-protein kinase FLT3 (Homo sapiens) pIC50 of the compound CC[C@H](C)Nc1ncc2c(=O)n([C@H]3CC[C@H](N(C)C)C3)cc([C@H]3CC[C@H](O)CC3)c2n1 equals 5.00 to 6.00

Considering Nc1c(-c2nc3ccc(N4CCNCC4)cc3[nH]2)c(=O)[nH]c2sccc12 , its pIC50 with Receptor-type tyrosine-protein kinase FLT3 (Homo sapiens) was recorded as ≥ 7.30

Simply: CC(=O)N1CCN(Cc2ccnc(Nc3cc4ccccc4cn3)c2)CC1 , Receptor-type tyrosine-protein kinase FLT3 (Homo sapiens), pIC50 = > 7.00

Entry CCOC(=O)N1CC2CC(Nc3nc(Nc4cnn(C)c4)ncc3Cl)CC2C1 (stereo not shown) , tested on Receptor-type tyrosine-protein kinase FLT3 (Homo sapiens), has a reported pIC50 of 6.30

Lab note: compound Cc1nc(NC(=O)N2CCC3(CCC3)C2=O)ccc1Oc1ccnc(-c2cnn(C)c2)c1 tested on Receptor-type tyrosine-protein kinase FLT3 (Homo sapiens); recorded pIC50 was < 5.00

Item: CCCC(C)Nc1ncc2c(=O)n(C3CCN(C(=O)CN(C)C)CC3)cc([C@H]3CC[C@H](O)CC3)c2n1 (stereo partly shown) | System: Receptor-type tyrosine-protein kinase FLT3 (Homo sapiens) | pIC50: 5.00 to 6.00

For the compound Nc1nc2ccccc2c2c1S(=O)(=O)c1ccc(Cl)cc1C2=O , the measured pIC50 on Receptor-type tyrosine-protein kinase FLT3 (Homo sapiens) was < 6.00

Reported Receptor-type tyrosine-protein kinase FLT3 (Homo sapiens) pIC50 for item CC[C@]1(O)CC[C@@H](c2cc(-c3cnn(C4COC4)c3)c3cnc(N[C@@H](C)COC)nn32)CC1 was 6.00 to 7.00
